Attribution: PubChem BioAssay (NCATS)

- System: CP191
- Experiment description: qHTS profiling for inhibitors of Plasmodium falciparum proliferation (AID 504749); note: nearly all actives have a fitted effect of over 60% in size; note: potency is the fitted concentration of half-maximal effect
- Reported conditions: P. falciparum in erythrocytes, SYBR Green DNA, 72 h; series mostly up to 28.7 µM
Inconclusive results are not listed. Active and inactive are the calls of the source. Calls come from the whole dose curve; as a rule, active = well fitted inhibition curve with a large enough effect; inconclusive = small, poorly fitted or top-dose-only effect; inactive = flat fitted curve, though single readings scatter.
Experimental readout: Potency

>>> recorded_value("CCOC(=O)Nc1ccc(NCc2ccc(F)cc2)nc1N")
"11.2 µM (active)"
>>> recorded_value("CC(CCc1ccc(O)cc1)NCCc1ccc(O)c(O)c1 (stereo unspecified)")
"inactive"
>>> recorded_value("CC[N+](CC)(CC)CCOc1cccc(OCC[N+](CC)(CC)CC)c1OCC[N+](CC)(CC)CC")
"inactive"
>>> recorded_value("CC(C)(C)C(=O)Oc1ccc(S(=O)(=O)Nc2ccccc2C(=O)NCC(=O)O)cc1")
"inactive"
>>> recorded_value("NCCS(=O)(=O)O")
"inactive"
>>> recorded_value("O=C1N(c2ccccc2)c2ccccc2C1(Cc1ccncc1)Cc1ccncc1")
"inactive"
>>> recorded_value("COc1ccccc1N1CCN(CC(O)COc2cccc3ccccc23)CC1 (stereo unspecified)")
"inactive"
>>> recorded_value("CC(C)NCC(O)c1ccc(O)c(O)c1 (stereo unspecified)")
"inactive"
>>> recorded_value("CC[C@@]1(O)C(=O)OCc2c1cc1n(c2=O)Cc2cc3c(CN(C)C)c(O)ccc3nc2-1")
"8.91 µM (active)"
>>> recorded_value("NS(=O)(=O)c1cc2c(cc1Cl)NCNS2(=O)=O")
"inactive"
>>> recorded_value("CN(C)CCOC(c1ccccc1)c1ccccc1")
"inactive"
